systemUnderTest: T1, IL-18 receptors on HEK-Blue IL-18 reporter cells (UniProt Q13478 19-541; O95256 20-599, limits assumed); further: unit not given here
T1 sequence (looked up) 1: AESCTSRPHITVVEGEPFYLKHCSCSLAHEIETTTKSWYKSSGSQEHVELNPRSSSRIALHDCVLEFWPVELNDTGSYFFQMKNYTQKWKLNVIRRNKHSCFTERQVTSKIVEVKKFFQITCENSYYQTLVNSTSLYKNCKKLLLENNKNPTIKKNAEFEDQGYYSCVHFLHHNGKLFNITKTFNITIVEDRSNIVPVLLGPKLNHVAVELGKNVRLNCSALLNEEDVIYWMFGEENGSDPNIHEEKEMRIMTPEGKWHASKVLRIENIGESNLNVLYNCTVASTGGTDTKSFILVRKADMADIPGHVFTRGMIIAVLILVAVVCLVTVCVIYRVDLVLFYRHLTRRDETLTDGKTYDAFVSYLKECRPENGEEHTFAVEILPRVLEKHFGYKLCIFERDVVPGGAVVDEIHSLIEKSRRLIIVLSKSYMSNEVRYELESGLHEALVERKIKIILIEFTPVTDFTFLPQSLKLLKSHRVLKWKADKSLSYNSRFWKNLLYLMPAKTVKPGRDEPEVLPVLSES
T1 sequence (looked up) 2: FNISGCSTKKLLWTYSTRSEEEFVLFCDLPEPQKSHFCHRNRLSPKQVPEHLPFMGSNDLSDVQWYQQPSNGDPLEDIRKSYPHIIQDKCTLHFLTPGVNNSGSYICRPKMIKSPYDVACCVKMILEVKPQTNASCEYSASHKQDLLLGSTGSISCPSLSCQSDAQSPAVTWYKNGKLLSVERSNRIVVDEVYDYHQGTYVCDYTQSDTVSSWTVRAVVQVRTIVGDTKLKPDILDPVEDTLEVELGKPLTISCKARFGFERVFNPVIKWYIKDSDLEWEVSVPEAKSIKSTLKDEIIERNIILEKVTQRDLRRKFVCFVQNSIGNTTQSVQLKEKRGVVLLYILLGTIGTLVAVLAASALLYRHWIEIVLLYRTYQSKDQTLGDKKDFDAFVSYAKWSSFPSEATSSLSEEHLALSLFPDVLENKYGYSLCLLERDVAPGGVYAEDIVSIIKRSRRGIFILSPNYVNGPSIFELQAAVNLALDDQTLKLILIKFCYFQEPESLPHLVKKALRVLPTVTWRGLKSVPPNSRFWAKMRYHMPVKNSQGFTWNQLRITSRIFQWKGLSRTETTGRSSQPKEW
testMethodNotes: cell-based or functional assay
observable: HEK-Blue activity, No BP, DF-10000
Could you keep your reply to the number by itself?

Known results for binders:
**Query** State the recorded HEK-Blue activity, No BP, DF-10000 for this entry: IL-18 variant S7Y, K53H, S55M (ligand) YFGKLEYKLSVIRNLNDQVLFIDQGNRPLFEDMTDSDMRDNAPRTIFIISMYHDMQPRGMAVTISVKSEKISTLSSENKIISFKEMNPPDNIKDTKSDIIFFQRSVPGHDNKMQFESSSYEGYFLASEKERDLFKLILKKEDELGDRSIMFTVQNED
**Result** 0.21

**Query** State the recorded HEK-Blue activity, No BP, DF-10000 for this entry: IL-18 variant K53S, S55F, T63S, R104K, H109Y (ligand) YFGKLESKLSVIRNLNDQVLFIDQGNRPLFEDMTDSDMRDNAPRTIFIISMYSDFQPRGMAVSISVKSEKISTLSSENKIISFKEMNPPDNIKDTKSDIIFFQKSVPGYDNKMQFESSSYEGYFLASEKERDLFKLILKKEDELGDRSIMFTVQNED
**Result** 0.14

With those in mind, consider the next binder.
**Query** State the recorded HEK-Blue activity, No BP, DF-10000 for this entry: IL-18 variant K53H, S55H (ligand) YFGKLESKLSVIRNLNDQVLFIDQGNRPLFEDMTDSDMRDNAPRTIFIISMYHDHQPRGMAVTISVKSEKISTLSSENKIISFKEMNPPDNIKDTKSDIIFFQRSVPGHDNKMQFESSSYEGYFLASEKERDLFKLILKKEDELGDRSIMFTVQNED
**Result** 0.15
